Target: recombinant GST fusion MALT1 (human MALT1) (Homo sapiens (Human), UniProt Q9UDY8)
Sequence (Q9UDY8 whole entry, the tested form may be a part): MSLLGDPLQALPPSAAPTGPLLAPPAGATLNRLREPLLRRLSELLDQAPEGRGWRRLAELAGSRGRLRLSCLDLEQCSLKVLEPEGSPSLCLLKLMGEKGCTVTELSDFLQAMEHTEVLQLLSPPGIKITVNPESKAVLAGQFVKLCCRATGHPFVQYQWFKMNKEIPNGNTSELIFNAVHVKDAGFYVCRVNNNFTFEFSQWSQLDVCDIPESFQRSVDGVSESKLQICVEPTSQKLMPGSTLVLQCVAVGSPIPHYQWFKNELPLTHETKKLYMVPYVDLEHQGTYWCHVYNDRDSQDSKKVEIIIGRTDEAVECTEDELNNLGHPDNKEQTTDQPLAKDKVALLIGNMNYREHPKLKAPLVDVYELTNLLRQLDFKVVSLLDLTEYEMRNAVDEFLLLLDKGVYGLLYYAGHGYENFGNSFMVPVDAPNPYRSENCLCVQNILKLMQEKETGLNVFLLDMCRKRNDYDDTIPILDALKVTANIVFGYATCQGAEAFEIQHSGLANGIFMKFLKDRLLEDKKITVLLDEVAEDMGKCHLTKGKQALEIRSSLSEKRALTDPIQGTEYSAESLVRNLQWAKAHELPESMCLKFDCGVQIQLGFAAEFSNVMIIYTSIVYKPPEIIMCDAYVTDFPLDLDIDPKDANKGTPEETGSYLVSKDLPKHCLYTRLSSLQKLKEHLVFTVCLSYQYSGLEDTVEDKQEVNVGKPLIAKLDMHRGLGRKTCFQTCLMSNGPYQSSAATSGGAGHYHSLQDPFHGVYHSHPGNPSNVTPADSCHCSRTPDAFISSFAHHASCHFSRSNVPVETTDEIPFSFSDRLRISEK
Assay: Evaluation of inhibition of protease activity of MALT1 (cleavage of fluorescent peptide substrate Ac-LRSR-AMC)
Details: substrate Ac-LRSR-AMC 20 μmol/L, 30° C. for 80 minutes
Counter-ions that a name gives are not always drawn.
Parameter Measured: pIC50
To interpret pIC50, take it as minus log10 of a concentration measured in moles per litre.

INSERT INTO assay_data (compound, target_system, measurement) VALUES
  ('N/C(=N\S(=O)(=O)Cc1ccccc1)NCc1cnc(-c2ccc(Cl)cc2)c(-c2ccc(Cl)cc2)c1', 'recombinant GST fusion MALT1 (human MALT1) (Homo sapiens (Human), UniProt Q9UDY8)', 6.13),
  ('N/C(=N\S(=O)(=O)c1ccccc1F)NCc1cnc(-c2ccc(Cl)cc2)c(-c2ccc(Cl)cc2)c1', 'recombinant GST fusion MALT1 (human MALT1) (Homo sapiens (Human), UniProt Q9UDY8)', 6.50),
  ('N/C(=N\C(=O)c1ccccn1)NCc1cnc(-c2ccc(Cl)cc2)c(-c2ccc(Cl)cc2)c1', 'recombinant GST fusion MALT1 (human MALT1) (Homo sapiens (Human), UniProt Q9UDY8)', 6.13),
  ('Cc1ccc(-c2ncc(CN/C(N)=N/S(=O)(=O)c3ccccc3)cc2-c2ccc(C(F)(F)F)cc2)cc1 [Compound of Example 25, hydrochloride]', 'recombinant GST fusion MALT1 (human MALT1) (Homo sapiens (Human), UniProt Q9UDY8)', 5.74),
  ('COCC(=O)/N=C(\N)NCc1cnc(-c2ccc(Cl)cc2)c(-c2ccc(Cl)cc2)c1', 'recombinant GST fusion MALT1 (human MALT1) (Homo sapiens (Human), UniProt Q9UDY8)', 6.19);

Prompt: Find pIC50 (recombinant GST fusion MALT1 (human MALT1) (Homo sapiens (Human), UniProt Q9UDY8)) for the entry N/C(=N\C(=O)C1CC1)NCc1cnc(-c2ccc(Cl)cc2)c(-c2ccc(Cl)cc2)c1
Completion: 6.25

* * *

Target: recombinant GST fusion MALT1 (human MALT1) (Homo sapiens (Human))
Assay: Evaluation of inhibition of protease activity of MALT1 (cleavage of fluorescent peptide substrate Ac-LRSR-AMC)
Conditions: substrate Ac-LRSR-AMC 20 μmol/L, 30° C. for 80 minutes
pIC50: −log10 of the molar value. Structures can show the parent of a compound that is named as a salt.
Values of pIC50 greater than or equal to 6 map to y; values below map to n.

Field: example entries. Status: answers known.
INSERT INTO results (compound, target_system, cat) VALUES
  ('Cc1ccc(-c2ncc(CN/C(N)=N/S(=O)(=O)c3ccccc3)cc2-c2ccc(Cl)cc2)c(F)c1', 'recombinant GST fusion MALT1 (human MALT1) (Homo sapiens (Human))', 'y'),
  ('CN(C)C(=O)/N=C(\N)NCc1cnc(-c2ccc(Cl)cc2)c(-c2ccc(Cl)cc2)c1', 'recombinant GST fusion MALT1 (human MALT1) (Homo sapiens (Human))', 'n'),
  ('N/C(=N\C(=O)C1CCCCC1)NCc1cnc(-c2ccc(Cl)cc2)c(-c2ccc(Cl)cc2)c1 [Compound of Example 73, Hydrochloride]', 'recombinant GST fusion MALT1 (human MALT1) (Homo sapiens (Human))', 'y');

Prompt: Does the reported pIC50 for N/C(=N\S(=O)(=O)c1ccccc1)NCc1cnc(-c2ccc(Cl)cc2)c(-c2ccccc2Cl)c1 fall at or above the 6 mark?
Completion: n

Prompt: Does the reported pIC50 for NC(=NS(=O)(=O)c1cccs1)NCc1cc(-c2ccc(Cl)cc2)c(-c2ccc(Cl)cc2)cn1 fall at or above the 6 mark?
Completion: y

Prompt: Does the reported pIC50 for N/C(=N\C(=O)c1ccsc1)NCc1cnc(-c2ccc(Cl)cc2)c(-c2ccc(Cl)cc2)c1 fall at or above the 6 mark?
Completion: y

Prompt: Does the reported pIC50 for N/C(=N\S(=O)(=O)c1cccc(F)c1)NCc1cnc(-c2ccc(Cl)cc2)c(-c2ccc(Cl)cc2)c1 fall at or above the 6 mark?
Completion: y

Prompt: Does the reported pIC50 for N/C(=N\S(=O)(=O)c1cc2ccccc2s1)NCc1cnc(-c2ccc(Cl)cc2)c(-c2ccc(Cl)cc2)c1 fall at or above the 6 mark?
Completion: y
